EXPERIMENTAL_TARGET: EGFR Del19/T790M/C797S (Homo sapiens, UniProt P00533, C797S/DEL746-750/T790M)
Sequence (P00533 with tags, fused parts or gaps DEL746-750/T790M/C797S): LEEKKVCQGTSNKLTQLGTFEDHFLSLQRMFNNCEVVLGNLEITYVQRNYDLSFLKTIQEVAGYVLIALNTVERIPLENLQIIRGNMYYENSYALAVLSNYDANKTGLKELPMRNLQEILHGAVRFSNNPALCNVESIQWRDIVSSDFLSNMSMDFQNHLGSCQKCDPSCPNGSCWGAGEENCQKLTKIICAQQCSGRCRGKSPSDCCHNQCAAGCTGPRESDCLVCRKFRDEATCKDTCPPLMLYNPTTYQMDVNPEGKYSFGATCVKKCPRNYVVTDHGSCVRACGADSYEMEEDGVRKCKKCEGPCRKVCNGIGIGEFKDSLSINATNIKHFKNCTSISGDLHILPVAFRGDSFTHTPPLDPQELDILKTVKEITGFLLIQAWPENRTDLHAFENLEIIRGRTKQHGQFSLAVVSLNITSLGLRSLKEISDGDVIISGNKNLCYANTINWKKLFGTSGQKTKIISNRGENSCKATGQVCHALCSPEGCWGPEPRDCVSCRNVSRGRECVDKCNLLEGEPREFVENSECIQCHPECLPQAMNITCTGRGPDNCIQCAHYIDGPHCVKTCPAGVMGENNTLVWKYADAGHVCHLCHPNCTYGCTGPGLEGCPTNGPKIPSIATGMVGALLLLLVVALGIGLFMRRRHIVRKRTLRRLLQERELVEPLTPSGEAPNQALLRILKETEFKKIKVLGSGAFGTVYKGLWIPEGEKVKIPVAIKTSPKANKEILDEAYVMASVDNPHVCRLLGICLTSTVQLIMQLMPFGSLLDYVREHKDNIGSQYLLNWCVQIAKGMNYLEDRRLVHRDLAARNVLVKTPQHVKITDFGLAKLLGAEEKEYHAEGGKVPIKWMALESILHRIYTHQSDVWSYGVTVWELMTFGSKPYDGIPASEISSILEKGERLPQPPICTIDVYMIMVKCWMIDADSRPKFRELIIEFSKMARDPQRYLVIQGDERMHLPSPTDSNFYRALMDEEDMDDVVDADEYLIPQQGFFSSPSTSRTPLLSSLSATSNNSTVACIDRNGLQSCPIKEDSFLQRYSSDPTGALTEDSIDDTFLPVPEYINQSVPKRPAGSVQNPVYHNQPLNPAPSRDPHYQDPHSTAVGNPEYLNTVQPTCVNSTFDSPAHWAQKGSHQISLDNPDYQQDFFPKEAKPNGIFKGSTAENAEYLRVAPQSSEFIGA
EXPERIMENTAL_PROTOCOL: Biochemical EGFR kinase inhibition assay (Lance Ultra TR-FRET), triple mutant del19/T790M/C797S
MEASUREMENT_CONTEXT: Km ATP; read-out: IC50 Del19/T790M/C797S (nM) Km ATP
PROPERTY_MEASURED: IC50 (nM)

Solved cases (2 shown):
>  <COMPOUND>
CN(C)CCCn1cc(C#Cc2cnc(Nc3ccnc(-c4cnn(S(=O)(=O)C5CC5)c4)n3)cc2N[C@H]2CC[C@@H](O)CC2)cn1

>  <VALUE_UNIT>
nM

>  <OBS_VALUE>
0.4

$$$$
>  <COMPOUND>
O=S(=O)(C1CC1)n1cc(-c2nccc(Nc3cc(N4CCC(NCCO)CC4)c(C#Cc4cnn(C5CCOCC5)c4)cn3)n2)cn1

>  <VALUE_UNIT>
nM

>  <OBS_VALUE>
0.4

$$$$

I: CN(C)CCn1cc(C#Cc2cnc(Nc3ccnc(-c4cnn(S(=O)(=O)C5CC5)c4)n3)cc2N2CCC(NCCF)CC2)cn1
II: CC(O)C1CCN(c2cc(Nc3ccnc(-c4cnn(S(=O)(=O)C5CC5)c4)n3)ncc2C#Cc2cnn(C)c2)CC1 (stereo not shown)
Which of the two gives a bigger number for IC50: I or II ? The response must carry the label of the picked entry.
II
(II: 1.1 nM, I: 0.3 nM)

---

EXPERIMENTAL_TARGET: EGFR Del19/T790M/C797S (Homo sapiens, UniProt P00533, C797S/DEL746-750/T790M)
EXPERIMENTAL_PROTOCOL: Biochemical EGFR kinase inhibition assay (Lance Ultra TR-FRET), triple mutant del19/T790M/C797S
MEASUREMENT_CONTEXT: IC50 Del19/T790M/C797S (nM), 100 μM ATP
PROPERTY_MEASURED: IC50 (nM)

>  <COMPOUND>
O=S(=O)(C1CC1)n1cc(-c2nccc(Nc3cc(N[C@H]4CC[C@@H](O)CC4)c(C#Cc4ccc(CN5CCOCC5)s4)cn3)n2)cn1

>  <IC50 [nM]>
5.1

$$$$
>  <COMPOUND>
O=S(=O)(C1CC1)n1cc(-c2nccc(Nc3cc(N[C@H]4CC[C@](O)(CO)CC4)c(C#Cc4cnn(C(F)F)c4)cn3)n2)cn1

>  <IC50 [nM]>
2.7

$$$$
>  <COMPOUND>
CC(C)Nc1cc(Nc2ccnc(-c3cnn(S(=O)(=O)C4CC4)c3)n2)ncc1C#CCCCCC(=O)N1CCOCC1

>  <IC50 [nM]>
3.4

$$$$

a: O=S(=O)(C1CC1)n1cc(-c2nccc(Nc3cc(N[C@H]4CC[C@@H](CO)CC4)c(C#CC4C[C@@H]5CC[C@@H]4O5)cn3)n2)cn1 (stereo partly drawn)
b: CN(C)C[C@H]1CC[C@H](COc2cc(Nc3ccnc(-c4cnn(S(=O)(=O)C5CC5)c4)n3)ncc2C#Cc2cnn(C)c2)CC1
Which of the two gives a bigger number for IC50: a or b ? The response must carry the label of the picked entry.
b

---

Recorded IC50 by entry
EXPERIMENTAL_TARGET: EGFR wildtype (WT) (Homo sapiens, UniProt P00533)
Sequence (P00533 25-1210): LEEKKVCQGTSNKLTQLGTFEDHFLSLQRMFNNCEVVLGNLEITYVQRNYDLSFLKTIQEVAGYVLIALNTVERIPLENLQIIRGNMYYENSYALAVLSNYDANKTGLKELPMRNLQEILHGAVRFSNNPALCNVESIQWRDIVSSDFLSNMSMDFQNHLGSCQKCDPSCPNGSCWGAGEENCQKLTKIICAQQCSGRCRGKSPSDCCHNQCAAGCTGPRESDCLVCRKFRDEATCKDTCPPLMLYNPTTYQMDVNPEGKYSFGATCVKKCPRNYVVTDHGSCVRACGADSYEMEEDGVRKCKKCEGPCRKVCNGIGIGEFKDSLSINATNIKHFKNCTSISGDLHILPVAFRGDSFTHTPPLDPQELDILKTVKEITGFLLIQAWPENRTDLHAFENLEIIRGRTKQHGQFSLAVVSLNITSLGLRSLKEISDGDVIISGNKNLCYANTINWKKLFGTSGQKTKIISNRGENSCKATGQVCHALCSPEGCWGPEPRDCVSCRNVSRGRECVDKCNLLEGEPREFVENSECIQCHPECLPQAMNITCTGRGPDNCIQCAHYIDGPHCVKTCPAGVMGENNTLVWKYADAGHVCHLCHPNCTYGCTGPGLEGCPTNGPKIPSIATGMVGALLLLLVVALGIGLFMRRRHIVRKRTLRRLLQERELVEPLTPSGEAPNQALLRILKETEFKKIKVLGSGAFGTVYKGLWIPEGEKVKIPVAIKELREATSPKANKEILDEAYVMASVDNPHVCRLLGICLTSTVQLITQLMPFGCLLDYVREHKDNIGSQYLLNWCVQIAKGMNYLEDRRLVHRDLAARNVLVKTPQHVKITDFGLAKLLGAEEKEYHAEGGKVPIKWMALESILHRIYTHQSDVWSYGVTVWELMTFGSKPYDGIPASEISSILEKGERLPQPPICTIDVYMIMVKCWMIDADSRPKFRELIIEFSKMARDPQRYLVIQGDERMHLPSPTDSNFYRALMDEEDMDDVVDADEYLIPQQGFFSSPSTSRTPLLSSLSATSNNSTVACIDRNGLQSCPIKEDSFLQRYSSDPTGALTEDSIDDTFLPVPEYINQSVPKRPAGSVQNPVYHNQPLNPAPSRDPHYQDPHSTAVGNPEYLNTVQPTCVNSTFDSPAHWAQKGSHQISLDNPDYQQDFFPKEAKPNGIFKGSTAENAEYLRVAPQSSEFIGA
EXPERIMENTAL_PROTOCOL: Biochemical EGFR kinase inhibition assay (Lance Ultra TR-FRET), wildtype
MEASUREMENT_CONTEXT: IC50 WT (nM), 100 μM ATP

// IC50 value for `O=S(=O)(C1CC1)n1cc(-c2nccc(Nc3cc(N[C@H]4CC[C@@H](CO)CC4)c(C#Cc4cnn(CC(F)F)c4)cn3)n2)cn1` : > 10000 nM

---

EXPERIMENTAL_TARGET: EGFR L858R/T790M/C797S (Homo sapiens, UniProt P00533, C797S/L858R/T790M)
Sequence (P00533 25-1210 T790M/C797S/L858R): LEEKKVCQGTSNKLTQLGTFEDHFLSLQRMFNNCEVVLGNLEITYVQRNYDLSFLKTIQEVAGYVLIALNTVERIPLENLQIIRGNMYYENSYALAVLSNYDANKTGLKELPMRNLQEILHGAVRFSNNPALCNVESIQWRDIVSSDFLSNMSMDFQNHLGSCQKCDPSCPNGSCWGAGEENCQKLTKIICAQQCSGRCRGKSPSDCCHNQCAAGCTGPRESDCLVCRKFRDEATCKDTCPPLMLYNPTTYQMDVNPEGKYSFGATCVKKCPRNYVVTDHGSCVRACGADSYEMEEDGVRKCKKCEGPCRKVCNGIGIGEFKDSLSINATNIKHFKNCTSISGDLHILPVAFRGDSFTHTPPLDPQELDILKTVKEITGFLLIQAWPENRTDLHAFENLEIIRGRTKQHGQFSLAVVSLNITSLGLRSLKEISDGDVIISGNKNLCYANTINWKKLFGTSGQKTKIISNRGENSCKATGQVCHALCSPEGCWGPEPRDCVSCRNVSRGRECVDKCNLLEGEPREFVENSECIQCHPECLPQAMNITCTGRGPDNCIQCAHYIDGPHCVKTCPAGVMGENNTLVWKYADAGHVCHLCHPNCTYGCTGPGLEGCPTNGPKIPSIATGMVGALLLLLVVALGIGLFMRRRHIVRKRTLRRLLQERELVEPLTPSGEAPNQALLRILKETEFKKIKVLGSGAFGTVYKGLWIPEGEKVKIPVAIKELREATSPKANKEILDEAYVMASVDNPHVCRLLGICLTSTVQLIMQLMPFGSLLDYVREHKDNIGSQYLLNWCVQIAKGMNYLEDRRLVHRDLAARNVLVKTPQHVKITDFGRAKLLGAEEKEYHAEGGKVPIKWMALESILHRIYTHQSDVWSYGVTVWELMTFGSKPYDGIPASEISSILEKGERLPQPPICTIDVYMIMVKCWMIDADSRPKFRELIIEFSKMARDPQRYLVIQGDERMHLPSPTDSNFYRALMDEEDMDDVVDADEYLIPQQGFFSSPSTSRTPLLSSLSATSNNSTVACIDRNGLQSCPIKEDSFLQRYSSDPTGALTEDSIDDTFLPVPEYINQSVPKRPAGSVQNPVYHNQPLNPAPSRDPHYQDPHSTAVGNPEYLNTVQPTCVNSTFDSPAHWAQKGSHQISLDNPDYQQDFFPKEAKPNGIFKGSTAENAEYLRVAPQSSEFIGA
EXPERIMENTAL_PROTOCOL: Biochemical EGFR kinase inhibition assay (Lance Ultra TR-FRET), triple mutant L858R/T790M/C797S
MEASUREMENT_CONTEXT: Km ATP; read-out: IC50 L858R/T790M/C797S (nM) Km ATP
PROPERTY_MEASURED: IC50 (nM)

Solved cases (4 shown):
>  <MOLECULE>
O=S(=O)(C1CC1)n1cc(-c2nccc(Nc3cc(NC4CCC(O)CC4)c(C#Cc4cnn(C5CC5(F)F)c4)cn3)n2)cn1 (centres unmarked) [Example 85]

>  <VALUE_UNIT>
nM

>  <OBS_VALUE>
1

$$$$
>  <MOLECULE>
CC(C)Nc1cc(Nc2ccnc(-c3cnn(S(=O)(=O)C4CC4)c3)n2)ncc1C#Cc1cnn(CC(F)F)c1 [Example 23]

>  <VALUE_UNIT>
nM

>  <OBS_VALUE>
7.1

$$$$
>  <MOLECULE>
O=S(=O)(C1CC1)n1cc(-c2nccc(Nc3cc(N4CCC(NCCF)CC4)c(C#Cc4cnn(C5CCOCC5)c4)cn3)n2)cn1 [Example 136]

>  <VALUE_UNIT>
nM

>  <OBS_VALUE>
0.3

$$$$
>  <MOLECULE>
CC1(CO)CCN(c2cc(Nc3ccnc(-c4cnn(S(=O)(=O)C5CC5)c4)n3)ncc2C#Cc2cnn(C(F)(F)F)c2)CC1 [Example 101]

>  <VALUE_UNIT>
nM

>  <OBS_VALUE>
2.4

$$$$

1: CN(C)CCCn1cc(C#Cc2cnc(Nc3ccnc(-c4cnn(S(=O)(=O)C5CC5)c4)n3)cc2N2CCCC(CO)C2)cn1 (centres unmarked) [Example 122]
2: O=C1CCN(c2cc(Nc3ccnc(-c4cnn(S(=O)(=O)C5CC5)c4)n3)ncc2C#Cc2cnn(C3CCOCC3)c2)CC1 [Example 93]
Which of the two gives a bigger number for IC50: 1 or 2 ? The response must carry the label of the picked entry.
2
(2: 2.5 nM, 1: 0.2 nM)

P: Cn1cc(C#Cc2cnc(Nc3ccnc(-c4cnn(S(=O)(=O)C5CC5)c4)n3)cc2N2CCCC(CO)C2)cn1 (centres unmarked) [Example 9]
Q: Cn1ccc(C#Cc2cnc(Nc3ccnc(-c4cnn(S(=O)(=O)C5CC5)c4)n3)cc2N2CCC(C)(CO)CC2)n1 [Example 107]
Lower value for measured IC50? Options: P , Q The response must carry the label of the picked entry.
P

---

EXPERIMENTAL_TARGET: EGFR Del19/C797S (Homo sapiens, UniProt P00533, C797S/DEL746-750)
Sequence (P00533 with tags, fused parts or gaps DEL746-750/C797S): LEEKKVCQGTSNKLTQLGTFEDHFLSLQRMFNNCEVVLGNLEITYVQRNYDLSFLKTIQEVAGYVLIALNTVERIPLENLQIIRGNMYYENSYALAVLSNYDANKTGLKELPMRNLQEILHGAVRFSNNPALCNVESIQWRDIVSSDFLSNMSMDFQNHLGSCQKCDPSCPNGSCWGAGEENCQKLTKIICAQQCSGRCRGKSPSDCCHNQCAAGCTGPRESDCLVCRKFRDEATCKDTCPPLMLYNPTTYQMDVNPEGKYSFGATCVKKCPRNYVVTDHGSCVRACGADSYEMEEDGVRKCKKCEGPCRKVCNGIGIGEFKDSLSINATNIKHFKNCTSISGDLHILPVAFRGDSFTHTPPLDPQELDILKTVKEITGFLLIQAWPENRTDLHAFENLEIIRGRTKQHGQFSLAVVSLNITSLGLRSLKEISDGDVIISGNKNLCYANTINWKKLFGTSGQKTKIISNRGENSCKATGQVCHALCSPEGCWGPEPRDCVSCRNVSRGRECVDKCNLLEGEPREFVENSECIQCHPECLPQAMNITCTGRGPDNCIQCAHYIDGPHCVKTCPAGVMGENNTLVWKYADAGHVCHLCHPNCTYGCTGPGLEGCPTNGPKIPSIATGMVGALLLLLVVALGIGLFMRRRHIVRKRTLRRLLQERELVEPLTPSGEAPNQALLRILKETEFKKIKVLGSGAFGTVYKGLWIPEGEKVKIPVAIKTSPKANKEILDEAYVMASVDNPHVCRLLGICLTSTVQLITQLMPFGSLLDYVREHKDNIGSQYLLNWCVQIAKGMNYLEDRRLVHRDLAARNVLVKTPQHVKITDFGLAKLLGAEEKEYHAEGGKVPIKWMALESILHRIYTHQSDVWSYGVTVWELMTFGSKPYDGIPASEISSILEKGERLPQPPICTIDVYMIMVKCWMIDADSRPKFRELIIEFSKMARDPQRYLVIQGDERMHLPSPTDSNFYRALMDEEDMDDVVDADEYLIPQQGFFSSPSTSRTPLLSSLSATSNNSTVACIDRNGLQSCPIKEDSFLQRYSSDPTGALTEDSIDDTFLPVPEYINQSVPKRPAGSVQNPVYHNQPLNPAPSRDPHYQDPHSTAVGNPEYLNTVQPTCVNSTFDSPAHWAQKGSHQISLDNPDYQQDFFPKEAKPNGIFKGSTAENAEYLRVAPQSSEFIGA
EXPERIMENTAL_PROTOCOL: Biochemical EGFR kinase inhibition assay (Lance Ultra TR-FRET), double mutant del19/C797S
MEASUREMENT_CONTEXT: IC50 Del19/C797S (nM), 100 μM ATP
PROPERTY_MEASURED: IC50 (nM)

>  <COMPOUND>
COC1CCN(c2cc(Nc3ccnc(-c4cnn(S(=O)(=O)C5CC5)c4)n3)ncc2C#Cc2cnn(C3CCN(C(C)=O)CC3)c2)CC1

>  <OBS_VALUE>
4

$$$$

a: O=S(=O)(C1CC1)n1cc(-c2nccc(Nc3cc(N4CCC5(CCO5)CC4)c(C#Cc4cccnc4)cn3)n2)cn1
b: CC1(CO)CCN(c2cc(Nc3ccnc(-c4cnn(S(=O)(=O)C5CC5)c4)n3)ncc2C#C[Si](C)(C)C)CC1
c: Cn1cc(C#Cc2cnc(Nc3ccnc(-c4cnn(S(=O)(=O)C5CC5)c4)n3)cc2N2CCC(NCC(F)(F)F)CC2)cn1
Arrange these compounds by their IC50, starting with the largest number. Hello, could you send the labels back in the order asked? Thank you.
b, a, c
(b: 54.6 nM, a: 7.9 nM, c: 3 nM)

---

EXPERIMENTAL_TARGET: EGFR Del19/C797S (Homo sapiens, UniProt P00533, C797S/DEL746-750)
EXPERIMENTAL_PROTOCOL: Biochemical EGFR kinase inhibition assay (Lance Ultra TR-FRET), double mutant del19/C797S
MEASUREMENT_CONTEXT: IC50 Del19/C797S (nM), 100 μM ATP
PROPERTY_MEASURED: IC50 (nM)

>  <TEST_SMILES>
O=S(=O)(C1CC1)n1cc(-c2nccc(Nc3cc(N[C@H]4CC[C@@H](O)CC4)c(C#Cc4ccc(CN5CCOCC5)s4)cn3)n2)cn1

>  <PROPERTY_MEASURED>
IC50

>  <VALUE_UNIT>
nM

>  <OBS_VALUE>
4.6

$$$$

P: Cn1ncc(C#Cc2cnc(Nc3ccnc(-c4cnn(S(=O)(=O)C5CC5)c4)n3)cc2N2CCC(CCO)CC2)c1C1CC1
Q: O=S(=O)(C1CC1)n1cc(-c2nccc(Nc3cc(N[C@H]4CC[C@@H](O)CC4)c(C#CC4(O)CCOCC4)cn3)n2)cn1
Lower value for measured IC50? Options: P , Q The response must carry the label of the picked entry.
Q
(Q: 9.8 nM, P: 26.3 nM)
